system: GSK-3-phosphorylated β-catenin; experiment: β-catenin phosphorylation at GSK-3 sites in SH-SY5Y cells (Western blot / ELISA); format: cell-based, human; conditions: 6 hours, 10 μM or range of concentrations, with 2 μM MG132
Parameter: Inhibition of β-catenin phosphorylation at GSK-3 sites

// below: answered compounds
- CN1CCN(CCO/N=C2/C(=C3/C(=O)Nc4cc(Br)ccc43)Nc3ccccc32)CC1 [Cpd 23]: most efficient
- O=C1Nc2cc(Br)ccc2/C1=C1/Nc2ccccc2/C1=N\OCCN(CCO)CCO: most efficient
- O=C1Nc2cc(Br)ccc2/C1=C1/Nc2ccccc2/C1=N\OCCN1CCNCC1 [Cpd 11]: most efficient
- O=C1Nc2cc(Br)ccc2/C1=C1/Nc2ccccc2/C1=N\OCCN1CCN(CCO)CC1 [Cpd 24]: most efficient
- O=C1Nc2cc(Br)ccc2/C1=C1/Nc2ccccc2/C1=N\OCCN1CCNCC1 [Cpd 22]: most efficient

Input line: Requested read-out: Inhibition of β-catenin phosphorylation at GSK-3 sites. Entry: O=C1Nc2cc(Br)ccc2/C1=C1/Nc2ccccc2/C1=N\OCC(O)CO (centres unmarked)
Output line: most efficient

Input line: Thanks! And CN(C)CCO/N=C1/C(=C2/C(=O)Nc3cc(Br)ccc32)Nc2ccccc21 [Cpd 16] ?
Output line: most efficient

Input line: Thanks! And CN1CCN(CCO/N=C2/C(=C3/C(=O)Nc4cc(Br)ccc43)Nc3ccccc32)CC1 [Cpd 12] ?
Output line: most efficient

Input line: Thanks! And CN(C)CCO/N=C1/C(=C2/C(=O)Nc3cc(Br)ccc32)Nc2ccccc21 [Cpd 5] ?
Output line: most efficient

Input line: Thanks! And O=C1Nc2cc(Br)ccc2/C1=C1/Nc2ccccc2/C1=N\OCCN1CCN(CCO)CC1 [Cpd 13] ?
Output line: most efficient
